B1: NP_015628.1 (parent)
chain: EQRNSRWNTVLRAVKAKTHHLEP

# Variants of: B1
# PROTOCOL_DETAILS: protein stability index of a GFP-peptide fusion (GPS, HEK-293T) (PSI 1-6); higher = more stable;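 also: lentivirally expressed fusion library, cells FACS-sorted into six equal-sized GFP/DsRed ratio bins, PSI computed from sequencing read fractions per bin weighted by bin number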
# ASSAY_CONDITIONS: c terminus: native
MEASURE_NAME: protein stability index
Would you mind answering with just the numeric figure?

Some entries whose results are on file:
RESIDUE_STRING	protein stability index
EQRNLRWNTVLRAVKAKTHHLEP [S5L]	2.48
EQLNSRWNTVLRAVKAKTHHLEP [R3L]	3.23
EQRNSRWNTVLRAVKAKTHHLMP [E22M]	2.84
EQRNSRWNTVLRAKKAKTHHLEP [V14K]	3.44
EQRNSRWNTVLRAVKAKTHHLVP [E22V]	3.49

Now consider a different variant.
Task: Which measured protein stability index value corresponds to EQRNSRWNTVLLAVKAKTHHLEP [R12L] ?
Result: 2.76
